# Target desc: Estrogen receptor (Homo sapiens, UniProt P03372)
# Sequence (P03372 whole entry): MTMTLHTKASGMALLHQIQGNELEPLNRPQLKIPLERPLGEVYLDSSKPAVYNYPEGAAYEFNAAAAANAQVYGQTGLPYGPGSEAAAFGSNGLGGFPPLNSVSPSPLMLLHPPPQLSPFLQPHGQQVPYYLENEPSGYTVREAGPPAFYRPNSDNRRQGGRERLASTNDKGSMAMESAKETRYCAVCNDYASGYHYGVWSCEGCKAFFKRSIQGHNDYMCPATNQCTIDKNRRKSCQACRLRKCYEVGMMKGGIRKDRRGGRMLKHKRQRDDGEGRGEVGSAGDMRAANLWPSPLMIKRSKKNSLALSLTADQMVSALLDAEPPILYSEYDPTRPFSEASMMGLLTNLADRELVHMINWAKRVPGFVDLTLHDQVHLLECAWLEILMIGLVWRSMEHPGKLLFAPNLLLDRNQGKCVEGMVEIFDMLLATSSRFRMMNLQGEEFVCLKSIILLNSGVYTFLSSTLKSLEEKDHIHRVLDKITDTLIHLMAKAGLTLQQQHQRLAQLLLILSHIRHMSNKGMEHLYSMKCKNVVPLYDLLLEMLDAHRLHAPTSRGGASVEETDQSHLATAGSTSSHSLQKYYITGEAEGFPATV
# Assay explanation: fluorescent estrogen displacement from ERalpha – cell-based, Cos7 ERalpha-GFP, flow cytometry, dose response (AID 1223)
pEC50: −log10 of the molar value.
Please use satisfied whenever pEC50 is not below 7, and not satisfied whenever it is.

Molecule	Target desc	Class name
COc1ccc(C(=O)NN=C(C)c2ccc3c(c2)C2C=CCC2C(c2ccccc2)N3)cc1 (configuration not stated) [SMR000176871]	Estrogen receptor (Homo sapiens, UniProt P03372)	not satisfied

Query: Hi team, for `CCn1c(=NC(=O)c2ccc(-n3c(O)ccc3O)cc2)sc2c(OC)ccc(OC)c21` , is the recorded pEC50 at or above 7?
Reply: not satisfied
